Reported viability, T/C values for the following compounds.
Test: Anticancer human tumor 997537-175-T-J1-PDC patient-derived colon adenocarcinoma cell line growth inhibition [POLQ]
Conditions: 997537-175-T-J1-PDC complex spheroid viability, combination with POLQ inhibitors; second compound 10 µM; first compound 0.316 µM; stronger effect = lower value
A number alone suffices; assume %.

>  <compound>
O=C(Nc1ccc(O)c(NS(=O)(=O)c2ccc(F)cc2)c1)c1ccc(-c2ccccc2)cc1 + COC1C(OC(N)=O)C(O)C(Oc2ccc3c(O)c(NC(=O)c4ccc(O)c(CC=C(C)C)c4)c(=O)oc3c2C)OC1(C)C

>  <viability, T/C, %>
109

$$$$
>  <compound>
COc1ccc([C@@H](O)c2cc(-c3ncnc4cc(N5CCOCC5)ccc34)c(F)cc2Cl)nn1 + COC1C(OC(N)=O)C(O)C(Oc2ccc3c(O)c(NC(=O)c4ccc(O)c(CC=C(C)C)c4)c(=O)oc3c2C)OC1(C)C

>  <viability, T/C, %>
118

$$$$
>  <compound>
CC(C)n1c(=O)n(C)c2cnc3cc(F)c(-c4ccc(OCCCN5CCCCC5)nc4)cc3c21 + COC1C(OC(N)=O)C(O)C(Oc2ccc3c(O)c(NC(=O)c4ccc(O)c(CC=C(C)C)c4)c(=O)oc3c2C)OC1(C)C

>  <viability, T/C, %>
90.9

$$$$
>  <compound>
CCc1cc2c(N3CCc4c(cc(Cn5ccnc5)cc4-c4cn(C)nc4C(F)(F)F)C3=O)cc(C)nc2c(OC)n1 + COC1C(OC(N)=O)C(O)C(Oc2ccc3c(O)c(NC(=O)c4ccc(O)c(CC=C(C)C)c4)c(=O)oc3c2C)OC1(C)C

>  <viability, T/C, %>
74.3

$$$$
>  <compound>
COc1cccc(OCCCN)c1-c1cc(Nc2cnc(C#N)cn2)n[nH]1 + COC1C(OC(N)=O)C(O)C(Oc2ccc3c(O)c(NC(=O)c4ccc(O)c(CC=C(C)C)c4)c(=O)oc3c2C)OC1(C)C

>  <viability, T/C, %>
24.9

$$$$
>  <compound>
O=C(c1cc(Cc2n[nH]c(=O)c3ccccc23)ccc1F)N1CCN(C(=O)C2CC2)CC1 + COC1C(OC(N)=O)C(O)C(Oc2ccc3c(O)c(NC(=O)c4ccc(O)c(CC=C(C)C)c4)c(=O)oc3c2C)OC1(C)C

>  <viability, T/C, %>
104

$$$$

Query C=CCn1c(=O)c2cnc(Nc3ccc(N4CCN(C)CC4)cc3)nc2n1-c1cccc(C(C)(C)O)n1 + Cc1cccc(N(C)C(=O)C2C(O)CCN2c2nc(C)cc(C(F)(F)F)c2C#N)c1 yields viability, T/C of 78.9

Query O=C(Nc1ccc(O)c(NS(=O)(=O)c2ccc(F)cc2)c1)c1ccc(-c2ccccc2)cc1 + Nc1ccc(C#CCN(C(=O)Cc2ncc(C(F)(F)F)cc2C(F)(F)F)c2ccc(F)cc2)nn1 yields viability, T/C of 113

Query COc1cc(C2c3cc4c(cc3C(OC3OC5COC(C)OC5C(O)C3O)C3COC(=O)C23)OCO4)cc(OC)c1O (stereo not drawn) + Cc1cccc(N(C)C(=O)C2C(O)CCN2c2nc(C)cc(C(F)(F)F)c2C#N)c1 yields viability, T/C of 106

Query CCCS(=O)(=O)Nc1ccc(F)c(C(=O)c2c[nH]c3ncc(-c4ccc(Cl)cc4)cc23)c1F + COC1C(OC(N)=O)C(O)C(Oc2ccc3c(O)c(NC(=O)c4ccc(O)c(CC=C(C)C)c4)c(=O)oc3c2C)OC1(C)C yields viability, T/C of 90.8

Query CC1COCCN1c1cc(-c2ccnn2C)c2ccnc(-c3ccn[nH]3)c2n1 (stereo not drawn) + Cc1cccc(N(C)C(=O)C2C(O)CCN2c2nc(C)cc(C(F)(F)F)c2C#N)c1 yields viability, T/C of 54.8

* * *

Reported viability, T/C values for the following compounds.
Test: Anticancer human tumor 997537-175-T-J1-PDC cell line growth inhibition [POLQ];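 note: luminescence signal used as a surrogate for viable cells; spheroids exposed to drugs for seven days before readout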
Details: 997537-175-T-J1-PDC complex spheroid viability, combination with POLQ inhibitors; second compound 3.16 µM; first compound 3.16 µM; stronger effect = lower value
A number alone suffices; assume %.

Illustrative cases are given below, each with its answer.
>  <compound>
C=CC(=O)N1CCN(c2nc(=O)n(-c3c(C)ccnc3C(C)C)c3nc(-c4c(O)cccc4F)c(F)cc23)C(C)C1 (centres undefined) + Cc1cccc(N(C)C(=O)C2C(O)CCN2c2nc(C)cc(C(F)(F)F)c2C#N)c1

>  <viability, T/C, %>
93.9

$$$$
>  <compound>
COc1cccc2c1C(=O)c1c(O)c3c(c(O)c1C2=O)CC(O)(C(=O)CO)CC3OC1CC(N)C(O)C(C)O1 (centres undefined) + COC1C(OC(N)=O)C(O)C(Oc2ccc3c(O)c(NC(=O)c4ccc(O)c(CC=C(C)C)c4)c(=O)oc3c2C)OC1(C)C

>  <viability, T/C, %>
34.8

$$$$
>  <compound>
CC1COCCN1c1cc(-c2ccnn2C)c2ccnc(-c3ccn[nH]3)c2n1 (centres undefined) + Nc1ccc(C#CCN(C(=O)Cc2ncc(C(F)(F)F)cc2C(F)(F)F)c2ccc(F)cc2)nn1

>  <viability, T/C, %>
52.5

$$$$

Query O=c1[nH]cc(F)c(=O)[nH]1 + Nc1ccc(C#CCN(C(=O)Cc2ncc(C(F)(F)F)cc2C(F)(F)F)c2ccc(F)cc2)nn1 yields viability, T/C of 88.6

Query C=CC(=O)N1CCN(c2nc(=O)n(-c3c(C)ccnc3C(C)C)c3nc(-c4c(O)cccc4F)c(F)cc23)C(C)C1 (centres undefined) + COC1C(OC(N)=O)C(O)C(Oc2ccc3c(O)c(NC(=O)c4ccc(O)c(CC=C(C)C)c4)c(=O)oc3c2C)OC1(C)C yields viability, T/C of 101

Query COc1cc(C2c3cc4c(cc3C(OC3OC5COC(C)OC5C(O)C3O)C3COC(=O)C23)OCO4)cc(OC)c1O (centres undefined) + Cc1cccc(N(C)C(=O)C2C(O)CCN2c2nc(C)cc(C(F)(F)F)c2C#N)c1 yields viability, T/C of 77.3

* * *

Test: Anticancer human tumor 997537-175-T-J1-PDC cell line growth inhibition [POLQ];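 note: luminescence signal used as a surrogate for viable cells; spheroids exposed to drugs for seven days before readout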
Conditions: 997537-175-T-J1-PDC complex spheroid viability, combination with POLQ inhibitors; second compound 3.16 µM; first compound 3.16 µM; stronger effect = lower value
Reported viability, T/C values for the following molecules.
A number alone suffices; assume %.

>  <molecule>
CC1COCCN1c1cc(C2(O)CC3CCC(C2)O3)c2cnn(-c3ccn[nH]3)c2n1 (centres undefined) + Cc1cccc(N(C)C(=O)C2C(O)CCN2c2nc(C)cc(C(F)(F)F)c2C#N)c1

>  <reported>
54.5

$$$$
>  <molecule>
COc1cc2cc(C(=O)CCC(=O)O)sc2cc1OC + COC1C(OC(N)=O)C(O)C(Oc2ccc3c(O)c(NC(=O)c4ccc(O)c(CC=C(C)C)c4)c(=O)oc3c2C)OC1(C)C

>  <reported>
97.3

$$$$
>  <molecule>
C=CC(=O)N1CCN(c2nc(=O)n(-c3c(C)ccnc3C(C)C)c3nc(-c4c(O)cccc4F)c(F)cc23)C(C)C1 (centres undefined) + Nc1ccc(C#CCN(C(=O)Cc2ncc(C(F)(F)F)cc2C(F)(F)F)c2ccc(F)cc2)nn1

>  <reported>
106

$$$$

API: the following record is the query input.
Query CCCS(=O)(=O)Nc1ccc(F)c(C(=O)c2c[nH]c3ncc(-c4ccc(Cl)cc4)cc23)c1F + Nc1ccc(C#CCN(C(=O)Cc2ncc(C(F)(F)F)cc2C(F)(F)F)c2ccc(F)cc2)nn1 yields viability, T/C of 73.1

* * *

Assay: Anticancer human tumor 997537-175-T-J1-PDC cell line growth inhibition [POLQ];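 note: luminescence signal used as a surrogate for viable cells; spheroids exposed to drugs for seven days before readout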
Details: 997537-175-T-J1-PDC complex spheroid viability, combination with POLQ inhibitors; second compound 1 µM; first compound 0.01 µM; stronger effect = lower value
reported endpoint: viability, T/C (%)
A number alone suffices; assume %.

Illustrative cases are given below, each with its answer.
>  <molecule>
COc1cccc(OCCCN)c1-c1cc(Nc2cnc(C#N)cn2)n[nH]1 + COC1C(OC(N)=O)C(O)C(Oc2ccc3c(O)c(NC(=O)c4ccc(O)c(CC=C(C)C)c4)c(=O)oc3c2C)OC1(C)C

>  <reported>
88

$$$$
>  <molecule>
CCc1c2c(nc3ccc(O)cc13)-c1cc3c(c(=O)n1C2)COC(=O)[C@]3(O)CC + Nc1ccc(C#CCN(C(=O)Cc2ncc(C(F)(F)F)cc2C(F)(F)F)c2ccc(F)cc2)nn1

>  <reported>
70.4

$$$$

API: the following record is the query input.
Query C=CCn1c(=O)c2cnc(Nc3ccc(N4CCN(C)CC4)cc3)nc2n1-c1cccc(C(C)(C)O)n1 + Cc1cccc(N(C)C(=O)C2C(O)CCN2c2nc(C)cc(C(F)(F)F)c2C#N)c1 yields viability, T/C of 109

* * *

Assay: Anticancer human tumor 997537-175-T-J1-PDC cell line growth inhibition [POLQ];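 note: luminescence signal used as a surrogate for viable cells; spheroids exposed to drugs for seven days before readout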
Settings: 997537-175-T-J1-PDC complex spheroid viability, combination with POLQ inhibitors; second compound 0.316 µM; first compound 10 µM; stronger effect = lower value
Reported viability, T/C values for the following compounds.
A number alone suffices; assume %.

>  <compound>
COc1cc(C2c3cc4c(cc3C(OC3OC5COC(C)OC5C(O)C3O)C3COC(=O)C23)OCO4)cc(OC)c1O (centres undefined) + Cc1cccc(N(C)C(=O)C2C(O)CCN2c2nc(C)cc(C(F)(F)F)c2C#N)c1

>  <reported endpoint>
viability, T/C

>  <reported>
52.8

$$$$
>  <compound>
COc1cc2cc(C(=O)CCC(=O)O)sc2cc1OC + COC1C(OC(N)=O)C(O)C(Oc2ccc3c(O)c(NC(=O)c4ccc(O)c(CC=C(C)C)c4)c(=O)oc3c2C)OC1(C)C

>  <reported endpoint>
viability, T/C

>  <reported>
91.8

$$$$
>  <compound>
CC1COCCN1c1cc(C2(S(C)(=N)=O)CC2)nc(-c2ccnc3[nH]ccc23)n1 (centres undefined) + COC1C(OC(N)=O)C(O)C(Oc2ccc3c(O)c(NC(=O)c4ccc(O)c(CC=C(C)C)c4)c(=O)oc3c2C)OC1(C)C

>  <reported endpoint>
viability, T/C

>  <reported>
54.7

$$$$

API: the following record is the query input.
Query Nc1ccn(C2OC(CO)C(O)C2(F)F)c(=O)n1 (centres undefined) + COC1C(OC(N)=O)C(O)C(Oc2ccc3c(O)c(NC(=O)c4ccc(O)c(CC=C(C)C)c4)c(=O)oc3c2C)OC1(C)C yields viability, T/C of 66.8
